assay: physchem; conditions: octanol/water
Description: GSK_TB: GSK in-house hydrophobicity assay (logP)
Given measured logP, output fulfilled if it is greater than or equal to 5 and not fulfilled if not.

Solved cases (8 shown):
molecule="Cc1ccc(CNC(=O)c2cnn3c2NC(c2ccc(C)cc2)CC3C(F)F)cc1 (stereo not given)" class_assignment=fulfilled
molecule=O=C(NCc1ccc(Oc2ccccc2)cc1)c1c(C(F)(F)F)nc2ccccn12 class_assignment=fulfilled
molecule=CCN(CC)c1ccc(-c2nn3c(-c4n[nH]c5c4CCC5)nnc3s2)cc1 class_assignment=fulfilled
molecule=O=C(NCc1cc(Cl)cc(Cl)c1)c1c(C(F)(F)F)nc2ccccn12 class_assignment=fulfilled
molecule=Cl.Cl.O=C(Nc1ccc(NC2=NCCN2)cc1)c1ccc(C(=O)Nc2ccc(NC3=NCCN3)cc2)cc1 class_assignment="not fulfilled"
molecule=Cc1ccc2nc(C(F)(F)F)c(C(=O)NCc3cccc(OC(C)C)c3)n2c1 class_assignment=fulfilled
molecule=CCOC(=O)CC[C@H](NC(=O)c1ccc(S(=O)(=O)Nc2ccc3nc(N)[nH]c(=O)c3c2)cc1)C(=O)OCC class_assignment="not fulfilled"
molecule=COc1ccc(CCNC(=O)c2c(C)nc3ccccn23)cc1 class_assignment="not fulfilled"

Consider the additional molecule presented here.
Record CCOC(=O)c1cc(-c2csc(Nc3c(C)cc(C)cc3C)n2)on1 ; criterion: logP no lower than 5. Met?
fulfilled
